The reported measurements were obtained from patent US20150322137A1.

# tested-target: F protein of human metapneumovirus strain JPS03-180 (type A1), on infectious virus (human metapneumovirus, strain JPS03-180 …)
# assay-summary: cell-based or functional assay
Listed here: items and their measured IC60, neutralizing activity (hMPV infection of LLC-MK2 cells; GraphPad Prism 6).
quantity-name: IC60, neutralizing activity (hMPV infection of LLC-MK2 cells; GraphPad Prism 6) (µg/mL)

binder	readout-unit	result-value
EV046143 (antibody, human IgG1, kappa, V domains shown) VH: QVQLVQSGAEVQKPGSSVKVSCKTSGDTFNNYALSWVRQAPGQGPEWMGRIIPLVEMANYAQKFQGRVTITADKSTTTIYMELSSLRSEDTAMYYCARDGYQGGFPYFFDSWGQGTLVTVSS VL: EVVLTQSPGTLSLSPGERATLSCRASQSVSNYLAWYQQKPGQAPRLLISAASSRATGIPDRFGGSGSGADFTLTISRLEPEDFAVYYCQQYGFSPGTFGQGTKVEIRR	µg/mL	0.186
EV046141 (antibody, human IgG1, lambda, V domains shown) VH: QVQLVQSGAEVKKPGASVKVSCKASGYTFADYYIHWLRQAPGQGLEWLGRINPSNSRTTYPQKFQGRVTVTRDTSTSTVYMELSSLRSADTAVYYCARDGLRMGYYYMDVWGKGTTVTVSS VL: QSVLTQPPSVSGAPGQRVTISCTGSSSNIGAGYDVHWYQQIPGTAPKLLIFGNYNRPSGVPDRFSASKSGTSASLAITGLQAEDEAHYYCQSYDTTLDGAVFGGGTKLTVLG	µg/mL	0.276
EV046147 (antibody, human IgG1, lambda, V domains shown) VH: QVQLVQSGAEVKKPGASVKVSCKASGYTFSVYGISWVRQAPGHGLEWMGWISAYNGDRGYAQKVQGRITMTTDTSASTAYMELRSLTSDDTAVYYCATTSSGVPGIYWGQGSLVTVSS VL: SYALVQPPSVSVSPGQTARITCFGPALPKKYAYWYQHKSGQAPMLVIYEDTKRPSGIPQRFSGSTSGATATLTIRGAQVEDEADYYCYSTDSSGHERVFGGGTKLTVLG	µg/mL	0.406
EV046135 (antibody, human IgG1, lambda, V domains shown) VH: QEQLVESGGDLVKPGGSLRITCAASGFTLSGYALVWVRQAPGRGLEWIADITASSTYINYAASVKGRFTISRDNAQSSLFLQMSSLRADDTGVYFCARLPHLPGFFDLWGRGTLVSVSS VL: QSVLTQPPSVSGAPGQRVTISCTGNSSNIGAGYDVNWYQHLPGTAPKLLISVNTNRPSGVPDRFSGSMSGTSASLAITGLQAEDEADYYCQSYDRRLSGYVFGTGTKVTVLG	µg/mL	0.44
EV046120 (antibody, human IgG1, lambda, V domains shown) VH: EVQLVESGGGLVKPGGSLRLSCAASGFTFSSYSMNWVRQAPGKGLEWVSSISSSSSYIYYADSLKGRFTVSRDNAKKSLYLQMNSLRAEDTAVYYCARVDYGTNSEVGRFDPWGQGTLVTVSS VL: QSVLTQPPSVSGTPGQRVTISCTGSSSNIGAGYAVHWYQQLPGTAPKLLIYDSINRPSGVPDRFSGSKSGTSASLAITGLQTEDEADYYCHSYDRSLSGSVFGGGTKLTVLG	µg/mL	0.421
EV046124 (antibody, human IgG1, lambda, V domains shown) VH: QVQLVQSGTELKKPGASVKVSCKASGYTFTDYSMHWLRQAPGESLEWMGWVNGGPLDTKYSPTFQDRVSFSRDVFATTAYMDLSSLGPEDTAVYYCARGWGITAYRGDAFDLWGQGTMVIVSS VL: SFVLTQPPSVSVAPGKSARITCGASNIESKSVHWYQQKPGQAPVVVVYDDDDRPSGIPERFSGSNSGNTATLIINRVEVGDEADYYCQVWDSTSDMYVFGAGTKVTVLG	µg/mL	0.102
EV046130 (antibody, human IgG1, lambda, V domains shown) VH: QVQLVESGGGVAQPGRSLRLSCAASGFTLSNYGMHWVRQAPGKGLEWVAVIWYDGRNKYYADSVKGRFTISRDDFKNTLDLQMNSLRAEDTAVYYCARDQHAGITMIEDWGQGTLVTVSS VL: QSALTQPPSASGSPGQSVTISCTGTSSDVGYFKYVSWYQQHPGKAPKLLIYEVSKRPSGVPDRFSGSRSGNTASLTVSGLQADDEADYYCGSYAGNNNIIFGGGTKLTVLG	µg/mL	0.254
